Hi there, I'd appreciate the recorded TGI for every entry that follows.
system: SK-MEL-2 melanoma; assay: NCI tumour cell line growth inhibition, 48 h
Where a SMILES comes first, the peptide text is derived from it. The star is where a group is joined. Trt = c1ccc(C(c2ccccc2)(c2ccccc2)*)cc1; Cbz = O=C(OCc1ccccc1)*
API: value field is a number in µM; no unit string.

Prompt: Dear colleague, I am looking for the recorded TGI of the following compound: Nc1cc2c3c(cccc3c1)C(=O)N(c1ccc(OCCN3CCCC3)cc1)C2=O
Completion: 38

Prompt: Dear colleague, I am looking for the recorded TGI of the following compound: c1cc2c(cc1C1=NCCN1)c1cc(C3=NCCN3)ccc1n2CC1CCCCC1
Completion: 34.6

Prompt: Dear colleague, I am looking for the recorded TGI of the following compound: CCCCC[C@H]1CCCCCCCCCC(=O)OC2C(O[C@@H]3OC(C)[C@H](OC(=O)[C@@H](C)CC)C(O[C@@H]4OC(C)[C@H](O)C(O)[C@@H]4O)[C@@H]3OC(=O)[C@H](C)CC)[C@H](OC3C(O)[C@@H](O)C(C)O[C@H]3O1)OC(CO)[C@H]2O (stereo partly specified)
Completion: 30.5

Prompt: Dear colleague, I am looking for the recorded TGI of the following compound: Cc1cc2nc3c4ccc(Br)cc4n(CCN(C)C)c3nc2cc1C
Completion: 4.24

Prompt: Dear colleague, I am looking for the recorded TGI of the following compound: NN/C(=N\S(=O)(=O)c1ccc(S(=O)(=O)c2ccccc2)s1)Nc1ccc(Cl)cc1
Completion: 53.8

Prompt: Dear colleague, I am looking for the recorded TGI of the following compound: Oc1ccc(Cl)cc1/C=N\NC(=S)N/N=C/c1cc(Cl)ccc1O
Completion: 10.1

Prompt: Dear colleague, I am looking for the recorded TGI of the following compound: COC(=O)C(CSC(c1ccccc1)(c1ccccc1)c1ccccc1)NC(=O)C(CC(N)=O)NC(=O)OCc1ccccc1 (stereo not drawn) (Cbz-Asn-Cys(Trt)-OMe; configuration not given here)
Completion: 5.49

Prompt: Dear colleague, I am looking for the recorded TGI of the following compound: O=C(Nc1nc2ccccc2s1)c1cc(-c2ccc(F)cc2)n2nc(-c3ccccc3)cc2n1
Completion: 8.97

Prompt: Dear colleague, I am looking for the recorded TGI of the following compound: COc1ccc(C2=NC(c3ccc(Cl)cc3)C(c3ccc(Cl)cc3)N2C(=O)N2CCNC(=O)C2)c(OC(C)C)c1 (stereo unspecified)
Completion: 4.15

Prompt: Dear colleague, I am looking for the recorded TGI of the following compound: CCN(CC)Cc1cc(Nc2c3ccccc3nc3cc(Cl)ccc23)ccc1O
Completion: 3.36

====

test system: KM12 colon; assay: NCI tumour cell line growth inhibition, 48 h
attribute measured: TGI (µM)
API: value field is a number in µM; no unit string.

Prompt: Dear colleague, I am looking for the recorded TGI of the following compound: CCCCCCCCCCCCCCCC1(OC)C[N+](C)(C)CCO1 (stereo unspecified)
Completion: 1.96

Prompt: Dear colleague, I am looking for the recorded TGI of the following compound: C/C(=N/O)c1ccc(Nc2cc(-n3ccnc3)c3ccccc3n2)cc1
Completion: 18.5

Prompt: Dear colleague, I am looking for the recorded TGI of the following compound: CN(C)/C=C/C=C(/C=N/S(=O)(=O)C(F)(F)F)C1C=CN(S(=O)(=O)C(F)(F)F)C=C1
Completion: 71.1

Prompt: Dear colleague, I am looking for the recorded TGI of the following compound: C=C(C)[C@@H]1CC[C@]2(C(=O)NC(C)=O)CC[C@]3(C)[C@H](CC[C@@H]4[C@@]5(C)CCCNC(C)(C)[C@@H]5CC[C@]43C)[C@@H]12
Completion: 2.9

Prompt: Dear colleague, I am looking for the recorded TGI of the following compound: O=[N+]([O-])/C(C(Cl)=C(Cl)Cl)=C(/Nc1ccccc1)Sc1ccccc1
Completion: 36

Prompt: Dear colleague, I am looking for the recorded TGI of the following compound: C=CC(C)(O)CC/C=C(\CO)C(=O)OC1C(C)OC(O[C@](C)(C=C)CC/C=C(\CO)C(=O)O[C@H]2C[C@@]3(C(=O)OC4OC(CO)C(O)C(O)C4OC4OC(C)C(OC5OC(CO)C(O)C5O)C(OC5OC(CO)C(O)C(O)C5O)C4O)C(CC2(C)C)C2=CCC4[C@@]5(C)CC[C@H](OC6OC(COC7OC(C)C(O)C(O)C7OC7OCC(O)C(O)C7O)C(O)C(O)C6NC(C)=O)C(C)(C)C5CC[C@@]4(C)[C@]2(C)C[C@H]3O)C(O)C1O (stereo partly specified)
Completion: 1.98

Prompt: Dear colleague, I am looking for the recorded TGI of the following compound: O=C(CCC1CCCCN1)Nc1ccc2c(c1)C(=O)c1ccc(NC(=O)CCN3CCCCC3)cc1C2=O (stereo unspecified)
Completion: 6.99

====

test system: COLO 205 colon; assay: NCI tumour cell line growth inhibition, 48 h
Hi there, I'd appreciate the recorded TGI for every entry that follows.

Prompt: Find TGI (COLO 205 colon) for the entry NC(=O)c1ccc(N(C(N)=O)c2c(F)cccc2F)nc1-c1ccc(F)cc1F
Completion: > 100 µM

Prompt: Find TGI (COLO 205 colon) for the entry O=c1[nH]nc(-c2ccccc2)n1-n1cnnc1
Completion: > 100 µM

Prompt: Find TGI (COLO 205 colon) for the entry Clc1cc2nnn(C3CCCO3)c2cc1Cl (stereo unspecified)
Completion: > 100 µM

Prompt: Find TGI (COLO 205 colon) for the entry CC(C)=NOC(=O)Nc1cccc2c1OCO2
Completion: > 100 µM

Prompt: Find TGI (COLO 205 colon) for the entry CN(C)CCCNC(=O)c1cn2c(ccc3sc4ccccc4c(=O)c32)n1
Completion: 7.95 µM

Prompt: Find TGI (COLO 205 colon) for the entry O=C(O)CCc1nc(-c2ccccc2-n2cccc2)no1
Completion: > 100 µM

Prompt: Find TGI (COLO 205 colon) for the entry CCOC(=O)C1=C(C)N(C2OC(COC(=O)c3ccccc3)C(OC(=O)c3ccccc3)C2OC(=O)c2ccccc2)C(=S)NC1c1ccccc1 (stereo unspecified)
Completion: > 100 µM

Prompt: Find TGI (COLO 205 colon) for the entry CCCCCCCCCCCCCCCC1(OC)C[N+](C)(C)CCO1 (stereo unspecified)
Completion: 2.58 µM

Prompt: Find TGI (COLO 205 colon) for the entry c1cc2c(cc1C1=NCCN1)c1cc(C3=NCCN3)ccc1n2CC1CCCCC1
Completion: 20.4 µM

Prompt: Find TGI (COLO 205 colon) for the entry O=C1CCC(=O)c2sccc2N1
Completion: > 100 µM

Prompt: Find TGI (COLO 205 colon) for the entry S=c1c2ccccc2c(=S)n2n1CC=CC2
Completion: > 100 µM

====

tested on: SNB-75 CNS; assay: NCI tumour cell line growth inhibition, 48 h
Hi there, I'd appreciate the recorded GI50 for every entry that follows.

Prompt: Dear colleague, I am looking for the recorded GI50 of the following compound: Cn1cc(C2=C(c3cn(CCCCC(=N)N)c4ccccc34)C(=O)NC2=O)c2ccccc21
Completion: 1650 nM

Prompt: Dear colleague, I am looking for the recorded GI50 of the following compound: COc1ccc(C(=O)c2cc3c(N)c(C(=O)Nc4cccc(OC)c4)sc3nc2C)cc1
Completion: 541 nM

Prompt: Dear colleague, I am looking for the recorded GI50 of the following compound: CC(=O)[C-](C(C)=O)c1ccccc1.CC(=O)[C-](C(C)=O)c1ccccc1.CC(=O)[C-](C(C)=O)c1ccccc1.[Cl-].[Zr+4]
Completion: 33000 nM

Prompt: Dear colleague, I am looking for the recorded GI50 of the following compound: COc1cccc2c1cc1c3c(cc4c(c32)OCO4)C(=O)N1
Completion: 2400 nM

Prompt: Dear colleague, I am looking for the recorded GI50 of the following compound: CCN(CC)Cc1cc(Nc2c3ccccc3nc3cc(Cl)ccc23)ccc1O
Completion: 1600 nM

Prompt: Dear colleague, I am looking for the recorded GI50 of the following compound: CN=C(N)N/N=C(\C)c1ccc2c(c1)Cc1ccccc1-2
Completion: 2000 nM

Prompt: Dear colleague, I am looking for the recorded GI50 of the following compound: Nc1nc(N)c2c(n1)NC(c1sc(Cl)nc1Cl)CC(c1ccc3c(c1)OCO3)=N2 (centres undefined)
Completion: 1390 nM

Prompt: Dear colleague, I am looking for the recorded GI50 of the following compound: COc1cc(/C=N/NC(=O)c2ccccc2Nc2cccc(C(F)(F)F)c2)cc(OC)c1OC
Completion: 1540 nM

Prompt: Dear colleague, I am looking for the recorded GI50 of the following compound: NS(=O)(=O)c1ccc(NC(=O)c2cccc(NC3=C(Cl)C(=O)N(Cc4ccccc4)C3=O)c2)cc1
Completion: 19400 nM

====

test system: UACC-62 melanoma; assay: NCI tumour cell line growth inhibition, 48 h; in the data active = GI50 below about 0.43 µM; inactive = the rest
Classes to choose from: T (active), F (inactive)

Prompt: Which outcome was assigned to C/C(=N/O)c1ccc(Nc2cc(-n3ccnc3)c3ccccc3n2)cc1 in this test?
Completion: F

Prompt: Which outcome was assigned to Cc1c(Cl)cccc1NC(=O)c1sc2nc3c(cc2c1N)CCCC3 in this test?
Completion: F

Prompt: Which outcome was assigned to COc1cc(/C=N/NC(=O)c2ccccc2Nc2cccc(C(F)(F)F)c2)cc(OC)c1OC in this test?
Completion: F

Prompt: Which outcome was assigned to NS(=O)(=O)c1ccc(NC(=O)c2cccc(NC3=C(Cl)C(=O)N(Cc4ccccc4)C3=O)c2)cc1 in this test?
Completion: F

Prompt: Which outcome was assigned to Cc1cc2nc3c4ccc(Br)cc4n(CCN(C)C)c3nc2cc1C in this test?
Completion: F

Prompt: Which outcome was assigned to O=Cc1ccc(N2CCN(c3ccc(C=O)cc3)CC2)cc1 in this test?
Completion: F

Prompt: Which outcome was assigned to CC1OC(=O)C(C(C)C)NC(=O)C(C(C)C)OC(=O)C(C(C)C)NC(=O)C(C)OC(=O)C(C(C)C)NC(=O)C(C(C)C)OC(=O)C(C(C)C)NC(=O)C(C)OC(=O)C(C(C)C)NC(=O)C(C(C)C)OC(=O)C(C(C)C)NC1=O (stereo not drawn) in this test?
Completion: T

Prompt: Which outcome was assigned to CCCN1CCC=C(c2ccc(Nc3nc(Nc4ccccc4C(N)=O)c4cc[nH]c4n3)c(C)c2)C1 in this test?
Completion: F

Prompt: Which outcome was assigned to CCOc1cc2c(cc1O)C(N)C[C@@H]1[C@@H]2CC[C@]2(C)[C@@H](O)CC[C@@H]12 (stereo partly drawn) in this test?
Completion: F

Prompt: Which outcome was assigned to CCN(CC)Cc1cc(Nc2c3ccccc3nc3cc(Cl)ccc23)ccc1O in this test?
Completion: F

Prompt: Which outcome was assigned to Cc1c(Cl)c(C)c(Cc2c(C)c(Cl)c(C)c(Cl)c2O)c(O)c1Cl in this test?
Completion: F

Prompt: Which outcome was assigned to C=CC(C)(O)CC/C=C(\CO)C(=O)OC1C(C)OC(O[C@](C)(C=C)CC/C=C(\CO)C(=O)O[C@H]2C[C@@]3(C(=O)OC4OC(CO)C(O)C(O)C4OC4OC(C)C(OC5OC(CO)C(O)C5O)C(OC5OC(CO)C(O)C(O)C5O)C4O)C(CC2(C)C)C2=CCC4[C@@]5(C)CC[C@H](OC6OC(COC7OC(C)C(O)C(O)C7OC7OCC(O)C(O)C7O)C(O)C(O)C6NC(C)=O)C(C)(C)C5CC[C@@]4(C)[C@]2(C)C[C@H]3O)C(O)C1O (stereo partly drawn) in this test?
Completion: F

Prompt: Which outcome was assigned to COc1ccc(C2=Nc3c/c(=C\c4c(O)[nH]c5cc(Cl)ccc45)ccc3=N2)cc1 in this test?
Completion: F
